assay: NCI Yeast Anticancer Drug Screen. Data for the mec2-1 strain (AID 157)
settings: S. cerevisiae mec2-1 strain, at 50.0 µM, active compounds read high
This is part of a sample that, as a whole, favours compounds with a hit. Of some 79,000 tested, about 15% had one in any assay.
Threshold rule: growth inhibition greater than or equal to 10% is y; below that, n.

Solved cases (3 shown):
COc1ccc(-n2c(C)nc3c(cnn3CN3CCCCC3)c2=O)cc1 | n
Nc1ccn(C2CC(F)C(CO)O2)c(=O)n1 (stereo unspecified) | y
Cc1c(C(=O)CC(=O)C(=O)Nc2c(C(C)C)cccc2C(C)C)[n+](=O)c2ccccc2n1[O-] | y

Record `CCCCCCCCCCCCCCCCS` ; criterion: growth inhibition no lower than 10%. Met?
n

hey, is growth inhibition for this one >= 10%? Cn1c(=O)c2c(nc3n2C(CCl)CO3)n(C)c1=O (stereo unspecified)
y

Check this compound for growth inhibition at or above 10%: `NNC(=O)CC(=O)Nc1ccc(S(=O)(=O)c2ccc(NC(=O)CC(=O)NN)cc2)cc1`
y

###

assay: NCI Yeast Anticancer Drug Screen. Data for the bub3 strain (AID 167)
settings: S. cerevisiae bub3 mutant strain, at 50.0 µM, active compounds read high
Compounds without any hit were thinned out: in the full panel of roughly 79,000, 15% have a hit.
property.measured: growth inhibition (%)
// note: answer is a bare numeric in %

O=[N+]([O-])c1ccc(N=NNc2ccc(N=Nc3ccccc3)cc2)cc1 | 0.1

# query: growth inhibition of entry CN1c2ccccc2C(=O)NC12CCN(CC1COc3ccccc3O1)CC2 (stereo unspecified)
66.5

Query: growth inhibition; subject: COc1cc(C(C#N)NNC(=O)Cc2ccccc2)cc(OC)c1OC (stereo unspecified)
-45.8

Quick one: growth inhibition for `Nc1ccc(F)c(F)c1` ?
2.65

Form field: reported growth inhibition of `Cc1cncc(NS(=O)(=O)c2ccc(N)cc2)n1`
10

Please look up its growth inhibition: `N#Cc1c(N)c(C(=O)O)nn(-c2cccc(C(F)(F)F)c2)c1=O`
-11.2

Fill in the blank: the reported growth inhibition of `N#CCC(=O)O` is ____.
-3.2

Please look up its growth inhibition: `COc1ccc(/C=N/NC(=O)c2ccccc2NC(=O)c2ccccc2Cl)cc1`
7.25

Please give the measured growth inhibition for this compound: COc1ccc2nc(NC(=O)C(=O)C(C#N)c3ccc(Cl)c(Cl)c3)sc2c1 (stereo unspecified)
-2.2

growth inhibition for `CCn1c(C)cc(=NC(=O)c2ccccc2O)n1-c1ccccc1` ?
21

Return reported growth inhibition; argument: `NS(=O)(=O)c1ccc(Nc2c3ccccc3nc3cc(Cl)ccc23)cc1`
-8.5

Fill in: growth inhibition of CC(=O)CCCC(CC(C)O)[Si](C)(C)C (stereo unspecified) is ___
-8.45

###

assay: NCI Yeast Anticancer Drug Screen. Data for the sgs1 mgt1 strain (AID 161);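 also: 0% = growth of cultures given vehicle only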
settings: S. cerevisiae sgs1 mgt1 strain, at 50.0 µM, active compounds read high
This is part of a sample that, as a whole, favours compounds with a hit. Of some 79,000 tested, about 15% had one in any assay.
Measured growth inhibition accompanies every entry in the list below.
// note: answer is a bare numeric in %

Example results:
O=C(CC(=O)n1nc(-c2ccccc2)c(N=Nc2ccccc2Cl)c1-c1ccccc1)Nc1ccc(Cl)cc1 | -3.95
CC(O)c1cccc(NC(=O)Nc2ccc(Cl)c(Cl)c2)c1 (stereo unspecified) | 70
Cc1nc(C(N)=S)sc1C(=O)/C=C/c1c(O)ccc2ccccc12 | 33.4
CC[n+]1nc2ccccc2c(=Nc2ccccc2[N+](=O)[O-])[n-]1 | 12.3
COc1ccccc1NC(=S)N/N=C/c1ccccn1 | 24.4
C=C1C(=O)OC(CCCCCCCCCCCCCC(C)=O)[C@H]1C(=O)O (stereo partly specified) | 22.1
N[C@@H](C[C@H]1CCC(=O)[C@@H]2O[C@H]12)C(=O)O | -12.5
COc1ccc(CSC(=S)Nc2ccc(F)c(C)c2)cc1 | 17.1

Any idea what its growth inhibition is? The compound is `CCOC(=O)c1c(C(=O)OC)nc2n1-c1ccccc1OC2`
-14.4

Suppose we examine the compound `COc1ccc(-c2nc(N3CCCC3)no2)cc1` ; what growth inhibition value has been reported?
32.1

Quick one: growth inhibition for `CCCCCCCCCCCCCCCC(=O)NCNC(=O)CCCCCCCCCCCCCCC` ?
-20.4

If you can, please state the reported growth inhibition value of `CCOc1ccc(/C=C2\N=C(c3ccc([N+](=O)[O-])cc3)OC2=O)cc1` .
3

Which growth inhibition value is on record for `COc1ccc2ccccc2c1C=O` ?
40.1

Fill in the blank: the reported growth inhibition of `C=C(c1ccccc1)c1cccc2ccccc12` is ____.
-4.9

Given the compound `CC(=O)[C@H]1CC[C@H]2[C@@H]3CC=C4N(CCO)C(=O)CC[C@]4(C)[C@H]3CC[C@]12C` , what is its reported growth inhibition?
14.8

What does the record list as growth inhibition for `COc1ccc(C[n+]2ccccc2C#N)cc1OC` ?
-10.4

###

assay: NCI Yeast Anticancer Drug Screen. Data for the cln2 rad14 strain (AID 165);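 also: 0% = growth equal to vehicle treated cultures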
settings: S. cerevisiae cln2 rad14 strain, at 50.0 µM, active compounds read high
Method: Growth inhibition of yeast strains with defined genetic alterations is measured as a screen for potential anti-cancer activity. Selected strains with alterations in DNA damage repair or cell cycle control were exposed to compounds and growth inhibition was measured relative to vehicle treated controls. The strain used in this assay is cln2 rad14
About 79,000 compounds went through this panel and 15% of them were active in at least one assay; those are over-represented in the sample as a whole.
property.measured: growth inhibition (%)
Numeric answer only, unit % assumed.

Worked cases, answers included:
O=C(/C=C/c1ccccc1)CCc1c(O)c2ccccc2oc1=O | 31.1
O=C(Nc1cccc(C(=O)Nc2ccc3cc(S(=O)(=O)O)cc(S(=O)(=O)O)c3c2)c1)Nc1cccc(C(=O)Nc2ccc3cc(S(=O)(=O)O)cc(S(=O)(=O)O)c3c2)c1 | -3

Record request: growth inhibition value, item CCC(O)C1CCCCC1O (centres undefined)
15.7

growth inhibition lookup needed for O=C1C(O)C(c2ccccc2)c2ccccc2N1c1ccccc1 (centres undefined) , thanks.
-5.9

###

assay: NCI Yeast Anticancer Drug Screen. Data for the sgs1 mgt1 strain (AID 161);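 also: 0% = growth of cultures given vehicle only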
settings: S. cerevisiae sgs1 mgt1 strain, at 50.0 µM, active compounds read high
The panel holds about 79,000 compounds, 15% with a hit somewhere; the sample as a whole holds those more often.
property.measured: growth inhibition (%)
Field: numeric (%). Do not append units.

Guide cases for growth inhibition, answers given:
COc1ccc(/C=C(\C#N)c2ccccc2NC(C)=O)cc1 | -2.95
Nc1nc2c(c(-c3ccc(Cl)cc3)n1)CN(c1ccc(Br)cc1)C2=O | -4.85
O=C(O)CNCc1ccc(F)cc1 | -14.7
Nc1ccnc2n[nH]nc12 | -19.1
CS(=O)(=O)N/N=C/C1C=CC=CC1 (stereo unspecified) | -6.25

Can you look up the measured growth inhibition of `CCOc1ccc(-c2nc(-c3oc4ccccc4c(=O)c3OC(C)=O)cs2)cc1` for me?
1.85

Please look up its growth inhibition: `COc1cc(NCCN=C(N)NC#N)c2ncccc2c1`
-0.7

Name the reported growth inhibition value associated with the molecule `Cc1cc(NC(=O)N(CCCl)N=O)c(C)cc1NC(=O)c1ccccc1`
40.5

Quick check: growth inhibition of `CCOC(=O)Nn1c(C)nnc1CC#N` ?
-8.1

Could you tell me which growth inhibition is on file for `Oc1ccc(N=Cc2ccc3ccccc3n2)cc1` ?
19.1

Quick one: growth inhibition of `CCc1cc(CSc2ccc(Cl)cc2)ccc1N` ?
98.8

###

Below, each entry is listed with its recorded growth inhibition.
assay: NCI Yeast Anticancer Drug Screen. Data for the cln2 rad14 strain (AID 165);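 also: 0% = growth equal to vehicle treated cultures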
settings: S. cerevisiae cln2 rad14 strain, at 50.0 µM, active compounds read high
About 79,000 compounds went through this panel and 15% of them were active in at least one assay; those are over-represented in the sample as a whole. Active and inactive are the calls of the source. Cut-off read from the data, not from the text of the source: active = growth inhibition above about 70%; inactive = the rest.

Answered cases to consult:
CN(CC(=O)NC(=O)c1ccccc1)Cc1ccccc1 | -37% (inactive)
O=C1CCN2CCC(=O)c3c(Cl)ccc1c32 | 13.8% (inactive)

# lookup: growth inhibition of `Nc1nc(NCCO)c(N=O)c(=O)[nH]1`
13.4% (inactive)

Give its growth inhibition value. Item: CC(C)C1NC(=O)c2ccccc2S1 (stereo not given)
26.1% (inactive)

Query: growth inhibition; subject: O=C1C2CCCC3CCCC(C(=O)N1NC1CCCCC1)C32 (stereo not given)
29.7% (inactive)

I am curious: what growth inhibition value has been reported for `CC(=O)Nc1cccc(Cc2cccc(NC(C)=O)c2)c1` ?
-43.4% (inactive)

What measured growth inhibition goes with Nc1ccn(C2CC(F)C(CO)O2)c(=O)n1 (stereo not given) ?
1.5% (inactive)

# get_value(readout='growth inhibition', item= `COc1ccc(N=Cc2ccc(OC(=O)c3ccccc3)c(OC)c2)cc1` )
-0.8% (inactive)
